protocol-notes: Tmax in C57BL/6 mouse plasma at 10 mg/kg, po
Assay type: ADME, organism-based
Design: dose 10 mg/kg, route oral
result-type: Tmax (min)

Cc1cc(N2CC[C@H](N3CCC[C@@H]3C)C2)ccc1NC(=O)c1cc(F)ccc1C    10.2

----------
protocol-notes: Tmax in C57BL/6 mouse brain at 2 mg/kg, iv
Format: ADME, organism-based
Set-up: dose 2 mg/kg, route intravenous
result-type: Tmax (min)

Cc1cc(N2CC[C@H](N3CCC[C@@H]3C)C2)ccc1NC(=O)c1cc(F)ccc1C    4.98

----------
target-system: hERG (KCNH2) (Homo sapiens)
Sequence (Q12809 whole entry): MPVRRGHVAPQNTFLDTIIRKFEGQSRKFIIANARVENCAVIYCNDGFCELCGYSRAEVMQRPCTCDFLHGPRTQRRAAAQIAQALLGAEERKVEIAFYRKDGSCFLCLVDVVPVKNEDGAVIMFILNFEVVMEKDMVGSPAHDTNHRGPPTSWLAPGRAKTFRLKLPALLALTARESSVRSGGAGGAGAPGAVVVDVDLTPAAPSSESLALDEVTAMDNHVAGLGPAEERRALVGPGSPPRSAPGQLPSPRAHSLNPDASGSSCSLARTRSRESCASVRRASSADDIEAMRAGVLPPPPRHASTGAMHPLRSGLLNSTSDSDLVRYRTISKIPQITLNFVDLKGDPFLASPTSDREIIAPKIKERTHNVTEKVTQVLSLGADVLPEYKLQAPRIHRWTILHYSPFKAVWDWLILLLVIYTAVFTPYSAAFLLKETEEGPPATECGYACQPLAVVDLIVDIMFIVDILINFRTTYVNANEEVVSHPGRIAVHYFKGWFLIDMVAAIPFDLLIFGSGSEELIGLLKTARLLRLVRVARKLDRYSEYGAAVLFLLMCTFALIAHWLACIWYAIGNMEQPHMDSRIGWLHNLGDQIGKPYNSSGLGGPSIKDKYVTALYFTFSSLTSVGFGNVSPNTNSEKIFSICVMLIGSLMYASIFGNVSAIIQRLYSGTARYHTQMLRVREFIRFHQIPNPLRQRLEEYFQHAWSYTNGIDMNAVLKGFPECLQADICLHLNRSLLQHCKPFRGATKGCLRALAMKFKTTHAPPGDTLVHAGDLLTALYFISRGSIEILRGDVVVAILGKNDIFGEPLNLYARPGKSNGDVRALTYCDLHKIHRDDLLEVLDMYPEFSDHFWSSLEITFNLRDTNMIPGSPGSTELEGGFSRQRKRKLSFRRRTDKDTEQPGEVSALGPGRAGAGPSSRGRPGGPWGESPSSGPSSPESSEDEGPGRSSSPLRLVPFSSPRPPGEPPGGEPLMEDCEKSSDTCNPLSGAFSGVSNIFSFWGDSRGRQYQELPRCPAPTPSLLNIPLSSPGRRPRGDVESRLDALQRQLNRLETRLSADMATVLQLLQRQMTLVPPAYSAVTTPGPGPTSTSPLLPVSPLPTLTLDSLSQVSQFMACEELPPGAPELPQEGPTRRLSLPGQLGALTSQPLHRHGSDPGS
protocol-notes: Inhibition of human ERG transfected in CHO cells at 10 uM by patch clamp assay relative to control
Type: cell-based
condition-notes: CHO cells transfected with human ERG
result-type: inhibition at 10 µM (%)

Cc1cc(N2CC[C@H](N3CCC[C@H]3C)C2)ccc1NC(=O)c1cc(F)ccc1C    84.3
Cc1cc(N2CC[C@H](N3CCC[C@@H]3C)C2)ccc1NC(=O)c1cc(F)ccc1C    84.3
Cc1cc(N2CC[C@@H](N3CCC[C@H]3C)C2)ccc1NC(=O)c1cc(F)ccc1C    77.5
Cc1cc(N2CC[C@@H](N3CCC[C@@H]3C)C2)ccc1NC(=O)c1cc(F)ccc1C    88.6

----------
target-system: Cytochrome P450 2B6 (Homo sapiens, UniProt P20813)
Sequence (P20813 whole entry): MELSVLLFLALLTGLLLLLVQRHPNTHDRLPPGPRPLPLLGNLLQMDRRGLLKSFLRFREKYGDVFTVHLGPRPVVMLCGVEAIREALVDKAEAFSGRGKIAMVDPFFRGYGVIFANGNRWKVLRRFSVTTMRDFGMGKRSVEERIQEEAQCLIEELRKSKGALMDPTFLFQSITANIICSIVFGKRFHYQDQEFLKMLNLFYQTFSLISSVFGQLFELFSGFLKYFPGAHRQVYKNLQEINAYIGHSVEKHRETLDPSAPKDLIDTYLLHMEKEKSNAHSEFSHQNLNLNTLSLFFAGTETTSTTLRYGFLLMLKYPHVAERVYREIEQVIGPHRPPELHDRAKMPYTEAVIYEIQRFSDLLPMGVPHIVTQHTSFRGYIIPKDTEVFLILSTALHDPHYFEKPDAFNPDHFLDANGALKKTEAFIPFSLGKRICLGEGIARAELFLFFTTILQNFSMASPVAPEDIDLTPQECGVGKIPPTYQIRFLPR
result-type: IC50

Cc1cc(N2CC[C@@H](N3CCC[C@H]3C)C2)ccc1NC(=O)c1cc(F)ccc1C    > 30 µM
Cc1cc(N2CC[C@@H](N3CCC[C@@H]3C)C2)ccc1NC(=O)c1cc(F)ccc1C    > 30 µM
Cc1cc(N2CC[C@H](N3CCC[C@@H]3C)C2)ccc1NC(=O)c1cc(F)ccc1C    > 30 µM

----------
protocol-notes: Ratio of AUC (0 to 24 hrs) in C57BL/6 mouse brain to AUC (0 to 24 hrs) in C57BL/6 mouse plasma at 2 mg/kg, iv
Assay type: ADME, organism-based
Design: dose 2 mg/kg, route intravenous
condition-notes: read-out: Ratio AUC
result-type: Kp

Cc1cc(N2CC[C@H](N3CCC[C@@H]3C)C2)ccc1NC(=O)c1cc(F)ccc1C    4.7

----------
Entries and their metabolised at 20 min, 5 µM values follow.
protocol-notes: Drug metabolism in human liver microsomes at 5 uM after 20 mins
Assay type: ADME, Microsome
condition-notes: read-out: Drug metabolism
result-type: metabolised at 20 min, 5 µM (%)

Cc1cc(N2CC[C@@H](N3CCC[C@H]3C)C2)ccc1NC(=O)c1cc(F)ccc1C    8
Cc1cc(N2CC[C@H](N3CCC[C@H]3C)C2)ccc1NC(=O)c1cc(F)ccc1C    7
Cc1cc(N2CC[C@H](N3CCC[C@@H]3C)C2)ccc1NC(=O)c1cc(F)ccc1C    3
Cc1cc(N2CC[C@@H](N3CCC[C@@H]3C)C2)ccc1NC(=O)c1cc(F)ccc1C    5
